Data origin, for the record: PubChem BioAssay (NCATS)

- experimental.details: BET inhibitor-based combinations targeting novel dependencies in MECOM-rearranged (r) AML: UCSD-AML1 cell line (AID 2202235); note: nearly all actives have a fitted effect of over 40% in size
- condition.details: UCSD-AML1 AML cells viability, CellTiter-Glo, 48 h; series mostly up to 46 µM
Inconclusive results are not listed. The source made the active and inactive calls. Calls come from the whole dose curve; as a rule, active = well fitted inhibition curve with a large enough effect; inconclusive = small, poorly fitted or top-dose-only effect; inactive = no such curve, though single readings can be large or run the other way.
Outcomes: y for active, n for inactive

smiles_repr=CC(=O)Nc1cc(Oc2ccc3c(nc(Nc4ccc(F)cc4F)n3C)c2C)ccn1 label_value=y
smiles_repr=CCS(=O)(=O)Nc1ccc(Oc2ccc(F)cc2F)c(-c2cn(C)c(=O)c3[nH]ccc23)c1 label_value=y
smiles_repr=C=CCNc1c(O)cc2c(O)c1C[C@@H](C)C[C@H](OC)[C@H](O)[C@@H](C)/C=C(/C)[C@H](OC(N)=O)[C@@H](OC)/C=C\C=C(\C)C(=O)N2 label_value=y
smiles_repr=C[C@]12CC[C@H](O)CC1=CC[C@@H]1[C@@H]2CC[C@]2(C)C(c3cccnc3)=CC[C@@H]12 label_value=n
smiles_repr=CCS(=O)(=O)c1ccc2oc(-c3ccc4ccccc4c3)nc2c1 label_value=n
smiles_repr=COc1cc2nc(-c3ccc(N4CCN(C)CC4)cc3)nc(NCCN3CCOCC3)c2cc1OC label_value=y
smiles_repr=Cc1nc(-c2cn3c(n2)-c2ccc(-c4cnn(C(C)(C)C(N)=O)c4)cc2OCC3)n(C(C)C)n1 label_value=y
smiles_repr=Nc1ccc(C(=O)c2cc3c(ccc4ccccc43)[nH]2)cc1 label_value=y
smiles_repr=NS(=O)(=O)c1ccc(Cc2c(-c3cccc(-c4ccccc4)c3)nn(-c3nc(C(=O)O)cs3)c2CC2CC2)cc1 label_value=n
smiles_repr=COc1cc(-c2cn(C)c(=O)c3cnccc23)c(OC)cc1CN(C)C label_value=n
smiles_repr=CC(=O)N1c2ccc(-c3ccc(C(=O)O)cc3)cc2[C@H](Nc2ccc(Cl)cc2)C[C@@H]1C label_value=y
smiles_repr=Cc1ccc(NS(=O)(=O)c2cccc(C#N)c2)c2[nH]cc(C#N)c12 label_value=y
smiles_repr=Cc1cnc(-c2ccccc2C(C)C)nc1NCc1ccc(-n2ccnn2)cc1 label_value=n
smiles_repr=C/C(O)=C(\C#N)C(=O)Nc1ccc(C(F)(F)F)cc1 label_value=n
smiles_repr=CCn1c(=O)c(-c2ccc(Cl)cc2Cl)cc2cnc(Nc3ccc(N4CCNCC4)c(F)c3)nc21 label_value=y
smiles_repr=CN(C)Cc1cccc(N=C(c2ccccc2)c2c(O)[nH]c3cc(C(N)=O)ccc23)c1 label_value=n
smiles_repr=Cc1noc(-c2ccc(-c3ccc(C4(C(=O)O)CC4)cc3)cc2)c1NC(=O)O[C@H](C)c1ccccc1 label_value=n
smiles_repr=C[C@H]1[C@@H](OC(=O)CCC(=O)O)O[C@@H]2O[C@@]3(C)CC[C@@H]4[C@H](C)CC[C@@H]1[C@@]24OO3 label_value=y
